This collection of values is drawn from PubChem BioAssay (NCI).

# Test system: HCC-2998 colon
# method.summary: NCI tumour cell line growth inhibition, 48 h
Known TGI of a selection of molecules
measured.property: TGI

- O=C1OCC=C1COC1OC(CO)C(O)C(O)C1O (centres undefined): > 100 µM
- CCCCN1CCN(c2ccc3nc(-c4ccc5nc(-c6ccc(OC)c(OC)c6)[nH]c5c4)[nH]c3c2)CC1: 2.4 µM
- O=C1/C(=C/c2cc3c(=O)c4ccccc4sc3s2)NC(=S)N1c1ccccc1: > 100 µM
- O=[N+]([O-])c1ccccc1S(=O)(=O)c1cc(O)cc2c1NCCC2: 51.1 µM
- CC12CCC(C(Br)(Br)C1=O)C2(C)C (centres undefined): 4.91 µM
- C=CC1(CC)/C(=N\O)C(CC)(CC)C(=O)N1O (centres undefined): > 100 µM
- O=C1Nc2cc(Cl)ccc2/C1=C\c1c(-c2ccc(F)cc2)nc2ccccn12: 2.88 µM
- O=c1c2ccc3cccc4c(=O)c5ccc6cccc1c6c5-c2c34: > 50 µM
- O=C(O)CNC(=O)C(CS)Cc1ccccc1 (centres undefined): > 25 µM
- CCCCc1ccc(Nc2cc(=O)n(C)c(=O)[nH]2)cc1: > 100 µM
- OC1(c2ccccc2)c2ccccc2NC2=NCCN21 (centres undefined): 31.3 µM
- C[N+](C)(CCNC(=O)c1cccc2cc3ccccc3nc12)Cc1ccc([N+](=O)[O-])cc1: > 100 µM
- CC(C)c1cc(Cl)nc(Cl)n1: > 100 µM
- COc1ccc(NC(=O)/C(Cc2nc3ccccc3[nH]c2=O)=N\O)c(OC)c1: > 100 µM
- CN(C)N=Nc1ccccc1: > 100 µM
- O=[N+]([O-])c1ccc(C2=NN(c3ccccc3)C[N+](c3ccc(Br)cc3)=N2)cc1: > 100 µM
- CCOC(=O)Nn1c(C)nnc1CC#N: > 100 µM
- COc1cc2c(cc1O)NC(=S)[C@@H]1CCCN1C2=O: > 100 µM
- Nc1cc(-c2ccccc2)nn1-c1nsc2ccccc12: > 100 µM
